Each entry below carries its recorded pIC50.
- target: hCGRP receptor (CALCRL:RAMP1) (Homo sapiens, UniProt O60894+Q16602)
- Construct: host or cells: GeneBLAzer CALCRL:RAMP1-CRE-bla Freestyle 293F
- Sequence (Q16602 23-461): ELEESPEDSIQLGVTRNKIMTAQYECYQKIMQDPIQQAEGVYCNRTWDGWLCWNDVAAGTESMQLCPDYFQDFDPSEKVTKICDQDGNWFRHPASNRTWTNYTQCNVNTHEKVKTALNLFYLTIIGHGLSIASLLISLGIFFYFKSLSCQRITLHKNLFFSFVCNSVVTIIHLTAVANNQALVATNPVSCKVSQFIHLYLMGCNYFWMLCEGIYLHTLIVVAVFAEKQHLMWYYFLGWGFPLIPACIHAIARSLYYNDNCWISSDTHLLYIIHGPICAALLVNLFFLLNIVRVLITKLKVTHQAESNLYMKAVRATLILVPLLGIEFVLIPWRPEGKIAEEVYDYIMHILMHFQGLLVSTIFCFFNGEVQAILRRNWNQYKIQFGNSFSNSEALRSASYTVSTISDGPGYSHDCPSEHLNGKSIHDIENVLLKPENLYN
- Sequence (O60894 27-148): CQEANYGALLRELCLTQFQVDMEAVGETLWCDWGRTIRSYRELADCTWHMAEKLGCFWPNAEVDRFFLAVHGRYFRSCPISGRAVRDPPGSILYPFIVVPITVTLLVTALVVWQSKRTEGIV
- assay_details: CGRP receptor antagonist activity measured by cAMP assay (HTRF)
- Format: cell-based
- run_conditions: GeneBLAzer CALCRL:RAMP1-CRE-bla Freestyle 293F cells; agonist human α-CGRP; 30 minutes; read-out: hCGRP-R IC50 Ave
Numbered stars: 1 amine (or outer) side, 2 acyl side, 3 side chain; on linkers, the order of the positions; unused ones are H or OH. Bridge positions count the residues as written; N and C are the ends. Square brackets hold non-standard residues; d marks the D form. Peptide text beside a SMILES is read from it. * marks the point of attachment. Phe(3-CH2NH2) = O=C([C@H](Cc1cccc(CN[*:3])c1)N[*:1])[*:2]; Picolinoyl(5-F) = O=C(c1ccc(F)cn1)*; Benzoyl(4-F) = O=C(c1ccc(F)cc1)*; 3Pal = N[C@@H](Cc1cccnc1)C(=O)O; ΔPro = O=C(O)[C@@H]1C=CCN1; Orn = NCCC[C@H](N)C(=O)O; Dap = NC[C@H](N)C(=O)O
Just so you know, pIC50 here is -log10 of the concentration in molar units; reply with that number alone.

Input line: Need pIC50 of CC(C)[C@@H]1NC(=O)[C@H](CC(=O)O)NC(=O)[C@H](CCCN)NC(=O)[C@@H](NC(=O)[C@H](Cc2ccc(O)cc2)NC(=O)[C@H](NC(=O)c2ccc(F)cn2)C(C)C)CSSC[C@@H](C(=O)N[C@@H](Cc2cccnc2)C(N)=O)NC(=O)[C@H](Cc2ccccc2)NC(=O)[C@@H]2CCCN2C(=O)CNC1=O [Compound 12] ({Picolinoyl(5-F)}-[dV]YC[Orn]DVGPFC[3Pal]-NH2; disulfide 3-10) , thanks.
Output line: 9.96

Input line: Need pIC50 of CC(C)[C@@H]1NC(=O)[C@H](CC(=O)O)NC(=O)[C@H](CCCNC(=N)N)NC(=O)[C@@H](NC(=O)[C@H](Cc2cccc(CN)c2)NC(=O)[C@H](NC(=O)c2ccc(F)cc2)C(C)C)CSSC[C@@H](C(=O)N[C@@H](Cc2cccnc2)C(N)=O)NC(=O)[C@H](Cc2ccc(O)cc2)NC(=O)[C@@H]2C=CCN2C(=O)CNC1=O [Compound 22] ({Benzoyl(4-F)}-[dV][Phe(3-CH2NH2)]CRDVG[ΔPro]YC[3Pal]-NH2; disulfide 3-10) , thanks.
Output line: 9.72

Input line: Need pIC50 of CC(C)[C@@H]1NC(=O)[C@H](CC(=O)O)NC(=O)[C@H](CN)NC(=O)[C@@H](NC(=O)[C@H](Cc2ccc(O)cc2)NC(=O)[C@H](NC(=O)c2ccc(F)cc2)C(C)C)CSSC[C@@H](C(=O)N[C@@H](Cc2cccnc2)C(N)=O)NC(=O)[C@H](Cc2ccc(O)cc2)NC(=O)[C@@H]2CCCN2C(=O)CNC1=O [Compound 7] ({Benzoyl(4-F)}-[dV]YC[Dap]DVGPYC[3Pal]-NH2; disulfide 3-10) , thanks.
Output line: 9.89

###

- target: hAM2 receptor (CALCRL:RAMP3) (Homo sapiens, UniProt O60896+Q16602)
- Construct: expressed in transfected cells; host or cells: GeneBLAzer CALCRL:RAMP3-CRE-bla Freestyle 293F
- Sequence (Q16602 23-461): as the sequence (Q16602 23-461) above
- Sequence (O60896 24-148): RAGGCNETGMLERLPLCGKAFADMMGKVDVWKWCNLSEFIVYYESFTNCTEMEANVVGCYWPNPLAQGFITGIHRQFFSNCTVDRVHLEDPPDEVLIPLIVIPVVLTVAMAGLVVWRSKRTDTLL
- assay_details: AM2 receptor antagonist activity measured by cAMP assay (HTRF)
- Assay type: cell-based
- run_conditions: % MPE: percent of the maximal possible effect; agonist human adrenomedullin; read-out: hAM2-R Efficacy Antag (%) Ave
Numbered stars: 1 amine (or outer) side, 2 acyl side, 3 side chain; on linkers, the order of the positions; unused ones are H or OH. Bridge positions count the residues as written; N and C are the ends. Square brackets hold non-standard residues; d marks the D form. Peptide text beside a SMILES is read from it. * marks the point of attachment. Phe(2-CONH2) = NC(=O)c1ccccc1C[C@H](N)C(=O)O; X13 = N#CN=C(N)NCC[C@H](N[*:1])C(=O)[*:2]; Picolinoyl(5-F) = O=C(c1ccc(F)cn1)*; Lys(Me2) = CN(C)CCCC[C@H](N)C(=O)O; Orn(iPr) = CC(C)NCCC[C@H](N)C(=O)O; Benzoyl(4-F) = O=C(c1ccc(F)cc1)*; 3Pal = N[C@@H](Cc1cccnc1)C(=O)O; ΔPro = O=C(O)[C@@H]1C=CCN1; Orn = NCCC[C@H](N)C(=O)O; X8 = CC(C)NCCOCCOCC(=O)*; X6 = O=C(c1ccncn1)*
attribute_measured: Emax (%)
All answers are understood in %, so give the number only.

Input line: Need Emax of CC(C)[C@@H]1NC(=O)[C@H](CC(=O)O)NC(=O)[C@H](CCNC(N)=NC#N)NC(=O)[C@@H](NC(=O)[C@H](Cc2ccc(O)cc2)NC(=O)[C@H](NC(=O)c2ccc(F)cc2)C(C)C)CSSC[C@@H](C(=O)N[C@@H](Cc2cccnc2)C(N)=O)NC(=O)[C@H](Cc2ccccc2)NC(=O)[C@@H]2CCCN2C(=O)CNC1=O [Compound 19] ({Benzoyl(4-F)}-[dV]YC[X13]DVGPFC[3Pal]-NH2; disulfide 3-10) , thanks.
Output line: 100

Input line: Need Emax of CC(C)[C@@H]1NC(=O)[C@H](CC(=O)O)NC(=O)[C@H](CCCNC(=O)[C@@H](N)CCCCN(C)C)NC(=O)[C@@H](NC(=O)[C@H](Cc2ccc(O)cc2)NC(=O)[C@H](NC(=O)c2ccncn2)C(C)C)CSSC[C@@H](C(=O)N[C@@H](Cc2cccnc2)C(N)=O)NC(=O)[C@H](Cc2ccccc2)NC(=O)[C@@H]2CCCN2C(=O)CNC1=O [Compound 45] (X6-[dV]YC[Orn](Lys(Me2))DVGPFC[3Pal]-NH2; disulfide 3-10) , thanks.
Output line: 98

Input line: Need Emax of CC(C)[C@@H]1NC(=O)[C@H](CC(=O)O)NC(=O)[C@H](CCCN)NC(=O)[C@@H](NC(=O)[C@H](Cc2ccc(O)cc2)NC(=O)[C@H](NC(=O)c2ccc(F)cn2)C(C)C)CSSC[C@@H](C(=O)N[C@@H](Cc2cccnc2)C(N)=O)NC(=O)[C@H](Cc2ccccc2)NC(=O)[C@@H]2CCCN2C(=O)CNC1=O [Compound 12] ({Picolinoyl(5-F)}-[dV]YC[Orn]DVGPFC[3Pal]-NH2; disulfide 3-10) , thanks.
Output line: 100

Input line: Need Emax of CC(C)NCCC[C@@H]1NC(=O)[C@@H](NC(=O)[C@H](Cc2ccccc2C(N)=O)NC(=O)[C@H](NC(=O)c2ccc(F)cn2)C(C)C)CSSC[C@@H](C(=O)N[C@@H](Cc2cccnc2)C(N)=O)NC(=O)[C@H](Cc2ccccc2C(N)=O)NC(=O)[C@@H]2C=CCN2C(=O)CNC(=O)[C@H](C(C)C)NC(=O)[C@H](CC(=O)O)NC1=O [Compound 66] ({Picolinoyl(5-F)}-[dV][Phe(2-CONH2)]C[Orn(iPr)]DVG[ΔPro][Phe(2-CONH2)]C[3Pal]-NH2; disulfide 3-10) , thanks.
Output line: 100

Input line: Need Emax of CC(C)[C@@H]1NC(=O)[C@H](CC(=O)O)NC(=O)[C@H](CCCNC(=N)N)NC(=O)[C@@H](NC(=O)[C@H](Cc2ccc(O)cc2)NC(=O)[C@H](NC(=O)c2ccc(F)cc2)C(C)C)CSSC[C@@H](C(=O)N[C@@H](Cc2cccnc2)C(N)=O)NC(=O)[C@H](Cc2ccccc2)NC(=O)[C@@H]2CCCN2C(=O)CNC1=O [Compound 1] ({Benzoyl(4-F)}-[dV]YCRDVGPFC[3Pal]-NH2; disulfide 3-10) , thanks.
Output line: 101

Input line: Need Emax of CC(C)NCCC[C@@H]1NC(=O)[C@@H](NC(=O)[C@H](Cc2ccccc2C(N)=O)NC(=O)[C@H](NC(=O)c2ccc(F)cn2)C(C)C)CSSC[C@@H](C(=O)N[C@@H](Cc2cccnc2)C(N)=O)NC(=O)[C@H](Cc2cccnc2)NC(=O)[C@@H]2C=CCN2C(=O)CNC(=O)[C@H](C(C)C)NC(=O)[C@H](CC(=O)O)NC1=O [Compound 38] ({Picolinoyl(5-F)}-[dV][Phe(2-CONH2)]C[Orn(iPr)]DVG[ΔPro][3Pal]C[3Pal]-NH2; disulfide 3-10) , thanks.
Output line: 101

Input line: Need Emax of CC(C)NCCC[C@@H]1NC(=O)[C@@H](NC(=O)[C@H](Cc2ccccc2C(N)=O)NC(=O)[C@H](NC(=O)c2ccc(F)cn2)C(C)C)CSSC[C@@H](C(=O)N[C@@H](Cc2cccnc2)C(N)=O)NC(=O)[C@H](Cc2cccnc2)NC(=O)[C@@H]2CCCN2C(=O)CNC(=O)[C@H](C(C)C)NC(=O)[C@H](CC(=O)O)NC1=O [Compound 39] ({Picolinoyl(5-F)}-[dV][Phe(2-CONH2)]C[Orn(iPr)]DVGP[3Pal]C[3Pal]-NH2; disulfide 3-10) , thanks.
Output line: 101

Input line: Need Emax of CC(C)[C@@H]1NC(=O)[C@H](CC(=O)O)NC(=O)[C@H](CCCNC(=N)N)NC(=O)[C@@H](NC(=O)[C@H](Cc2ccc(O)cc2)NC(=O)[C@H](NC(=O)c2ccncn2)C(C)C)CSSC[C@@H](C(=O)N[C@@H](Cc2cccnc2)C(N)=O)NC(=O)[C@H](Cc2ccccc2)NC(=O)[C@@H]2CCCN2C(=O)CNC1=O [Compound 16] (X6-[dV]YCRDVGPFC[3Pal]-NH2; disulfide 3-10) , thanks.
Output line: 101

Input line: Need Emax of CC(C)NCCOCCOCC(=O)NCCC[C@@H]1NC(=O)[C@@H](NC(=O)[C@H](Cc2ccc(O)cc2)NC(=O)[C@H](NC(=O)c2ccc(F)cn2)C(C)C)CSSC[C@@H](C(=O)N[C@@H](Cc2cccnc2)C(N)=O)NC(=O)[C@H](Cc2ccccc2)NC(=O)[C@@H]2CCCN2C(=O)CNC(=O)[C@H](C(C)C)NC(=O)[C@H](CC(=O)O)NC1=O [Compound 13] ({Picolinoyl(5-F)}-[dV]YC[Orn](X8)DVGPFC[3Pal]-NH2; disulfide 3-10) , thanks.
Output line: 100

// data source = patent US9969775B2
